From: patent US10416153B2

biological target: purified amyloid (Pseudomonas aeruginosa); assay: Surface plasma resonance assay with purified amyloid immobilized on chips
Sequence (Q9I2F0 25-340): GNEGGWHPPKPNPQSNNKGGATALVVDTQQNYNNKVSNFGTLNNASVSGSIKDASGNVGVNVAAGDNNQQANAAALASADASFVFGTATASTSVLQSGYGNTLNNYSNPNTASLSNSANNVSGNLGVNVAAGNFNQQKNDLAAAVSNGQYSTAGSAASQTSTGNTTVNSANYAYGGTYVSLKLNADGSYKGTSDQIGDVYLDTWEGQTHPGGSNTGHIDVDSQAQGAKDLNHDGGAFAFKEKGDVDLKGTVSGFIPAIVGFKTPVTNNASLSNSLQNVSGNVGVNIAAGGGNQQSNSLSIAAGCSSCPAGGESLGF
result.type: pKd
Give bare numbers, as −log10 of the molar value.

Check out these entries, answers already filled in.
| molecule | result.type | readout.value |
| --- | --- | --- |
| Cc1ccc2c(c1)sc(-c1ccc(N(C)C)cc1)[n+]2C [thioflavin T, reference compound] | pKd | 4.07 |
| COc1cc(/C=C/c2cc(C)c3n2[B-](F)(F)[N+]2=CC=CC2=C3c2ccc(N)cc2)c(Br)c(Br)c1O | pKd | 4.80 |
| Cc1cc(/C=C/c2ccc(-c3ccc([N+](=O)[O-])cc3)o2)n2c1C(c1ccc(N)cc1)=C1C=CC=[N+]1[B-]2(F)F | pKd | 4.55 |
| COc1cc(Cl)cc(/C=C/c2cc(C)c3n2[B-](F)(F)[N+]2=CC=CC2=C3c2ccc(N)cc2)c1OC | pKd | 4.21 |

Note: attention shifts to another entry.
Recall and state the measured pKd for COc1ccc(/C=C/c2cc(C)c3n2[B-](F)(F)[N+]2=CC=CC2=C3c2ccc(NC(C)=O)cc2)c(F)c1 . 4.54
